Tested on: Salmonella typhimurium
Procedure details: Mutagenicity in Salmonella typhimurium TA98 at 0.06 to 5 ug/plate after 1 hr by Ames test in presence of S9 fraction
Format: toxicity, organism-based
Experimental setup: salmonella enterica subsp. enterica serovar typhimurium, s9, 1 h
Readout: Activity

[[record]]
compound_smiles = "CCOC(=O)c1c(C(F)(F)F)[n+]([O-])c2ccc(Cl)cc2[n+]1[O-]"
tgt = "Salmonella typhimurium"
reported = "Non-toxic"

[[record]]
compound_smiles = "COC(=O)c1c(C(F)(F)F)[n+]([O-])c2ccc(C)cc2[n+]1[O-]"
tgt = "Salmonella typhimurium"
reported = "Toxic"

[[record]]
compound_smiles = "CCOC(=O)c1c(C(F)(F)F)[n+]([O-])c2cc(Cl)c(Cl)cc2[n+]1[O-]"
tgt = "Salmonella typhimurium"
reported = "Non-toxic"

[[record]]
compound_smiles = "COC(=O)c1c(C(F)(F)F)[n+]([O-])c2cc(F)c(F)cc2[n+]1[O-]"
tgt = "Salmonella typhimurium"
reported = "Non-toxic"

